Target: GST-tagged truncated human mutant G2019S LRRK2 (Homo sapiens, UniProt Q5S007, G2019S)
Experiment: LRRK2 G2019S Km ATP LanthaScreen assay
Format: biochemical
Conditions: 134 μM ATP (Km ATP), LRRKtide substrate, mean IC50 values; read-out: LRRK2 pIC50 (converted)
Measurement Type: IC50 (nM)
Write down the numeric answer in nM and omit the unit.

Req: Give recorded IC50 with GST-tagged truncated human mutant G2019S LRRK2 (Homo sapiens, UniProt Q5S007, G2019S) for the following molecule: CCn1ncc(Nc2ncc3cc(Cl)c(N4CCN(C5(C)COC5)CC4)cc3n2)c1Cl
Resp: 3.38

Req: Missing value: IC50, GST-tagged truncated human mutant G2019S LRRK2 (Homo sapiens, UniProt Q5S007, G2019S), entry CC1(O)CCN(c2cc3nc(Nc4cnn(C(C)(C)C#N)c4Cl)ncc3cc2Cl)CC1 . Fill in?
Resp: 4.02

Req: GST-tagged truncated human mutant G2019S LRRK2 (Homo sapiens, UniProt Q5S007, G2019S) / IC50 / CN1CC2CC1CN2c1cc2nc(Nc3cnn(C4(C)CC4)c3Cl)ncc2cc1Cl (stereo not shown) : value?
Resp: 4.91

Req: Query for GST-tagged truncated human mutant G2019S LRRK2 (Homo sapiens, UniProt Q5S007, G2019S): what IC50 does the record show for Clc1cc2cnc(Nc3cnn(C45CC(C4)C5)c3Cl)nc2cc1N1CCC2(CCOC2)CC1 ?
Resp: 3.23

----------
Molecular target: GST-tagged truncated human mutant G2019S LRRK2 (Homo sapiens, UniProt Q5S007, G2019S)
Test: LRRK2 G2019S Km ATP LanthaScreen assay
Assay type: biochemical
Conditions: 134 μM ATP (Km ATP), LRRKtide substrate, mean IC50 values; read-out: LRRK2 pIC50 (converted)
Checkbox rule: IC50 lower than 6 nM = 1.0; IC50 not lower than 6 nM = 0.0.

Req: Below 6 nM on IC50? Entry C[C@@H]1CN(C2COC2)CC[C@@H]1n1ncc(Nc2ncc3ccc(N4C(=O)OC[C@@H]4C)cc3n2)c1Cl
Resp: 1.0

Req: IC50 strictly < 6 nM for this compound? CC1(N2CCN(c3cc4nc(Nc5cnn(C6(C)CC6)c5Cl)ncc4cc3Cl)CC2)COC1
Resp: 1.0

Req: Does the reported IC50 of the following compound sit strictly below 6 nM? CC(C)(C)Cn1cc(Nc2ncc3cc(Cl)c(N4CCN(C5(C)COC5)CC4)cc3n2)cn1
Resp: 0.0

Req: Would you kindly verify if IC50 of Cn1cc(Nc2ncc3cc(Cl)c(N4CCN(C5(C)COC5)CC4)cc3n2)c(C(F)(F)F)n1 is strictly less than 6 nM?
Resp: 0.0

Req: Report whether reported IC50 is lower than 6 nM (strictly) for Cc1c(Nc2ncc3cc(Cl)c(N4CCN(C5COCC5O)CC4)cc3n2)cnn1CC(F)(F)F (single isomer, unassigned) [Ex-6.37]
Resp: 0.0

Req: Say whether its IC50 is strictly beneath 6 nM. Entry: Cc1c(Nc2ncc3cc(Cl)c(N4CCN(C5(C)COCC5O)CC4)cc3n2)cnn1C (single isomer, unassigned) [Ex-3.37]
Resp: 0.0

Req: Is IC50 of CC1(N2CCN(c3cc4cc(Nc5cnn(C6CC6)c5Cl)ncc4cc3Cl)CC2)COCC1O (single isomer, unassigned) strictly below 6 nM?
Resp: 1.0

Req: Is the reported IC50 for CC1(N2CCN(c3cc4nc(Nc5cnn(CC6CC6(F)F)c5)ncc4cc3Cl)CC2)COC1 (stereo not drawn) strictly below 6 nM?
Resp: 1.0

Req: Does the reported IC50 of the following compound sit strictly below 6 nM? CNc1cc2nc(Nc3cnn(C4CCN(C5(C)COC5)CC4)c3Cl)ncc2cc1Cl
Resp: 0.0

Req: Does this compound meet the criterion IC50 < 6 nM? COCC12CC(n3cc(Nc4ncc5cc(Cl)c(N(C)C)cc5n4)cn3)(C1)C2
Resp: 1.0

Req: Would you kindly verify if IC50 of Cc1nscc1Nc1ncc2cc(Cl)c(N3CCN(C4(C)COC4)CC3)cc2n1 is strictly less than 6 nM?
Resp: 0.0

Req: IC50 strictly < 6 nM for this compound? CCC1(N2CCN(c3cc4nc(Nc5cnn(C6CC6)c5Cl)ncc4cc3Cl)CC2)COC1
Resp: 0.0

Req: # TODO verify IC50 < 6 nM strictly for this compound: Cc1c(Nc2ncc3cc(Cl)c(N4CCC(C)(O)CC4)cc3n2)cnn1C1CC1(F)F (single isomer, unassigned) [Ex-6.9]
Resp: 1.0

Req: Could you please tell me whether IC50 recorded for Cc1c(Nc2ncc3cc(Cl)c(N4CCC(C)(O)C(C)C4)cc3n2)cnn1C1CC1 (single isomer, unassigned) [Ex-3.48] is less than 6 nM?
Resp: 1.0

Req: Hello, I'm reviewing records and need to know if IC50 of O[C@@H]1COC[C@@H]1N1CCN(c2cc3nc(Nc4cnn(C5CC5)c4Cl)ncc3cc2Cl)CC1 (single isomer, unassigned) [Ex-3.52] is below 6 nM. Could you check?
Resp: 1.0

----------
Target: GST-tagged truncated human mutant G2019S LRRK2 (Homo sapiens, UniProt Q5S007, G2019S)
Assay: LRRK2 G2019S Km ATP LanthaScreen assay
Format: biochemical
Conditions: 134 μM ATP (Km ATP), LRRKtide substrate, mean IC50 values; read-out: LRRK2 pIC50 (converted)
Measurement Type: IC50 (nM)
Give the value in nM but do not write nM after it.

Req: Entry Clc1cc2cnc(Nc3cnn(C4CC4)c3Cl)nc2cc1N1CCN(C2COC2)CC1 , system GST-tagged truncated human mutant G2019S LRRK2 (Homo sapiens, UniProt Q5S007, G2019S): what IC50 was measured?
Resp: 2.59

Req: Tell me reported IC50 for COC1CCC1n1ncc(Nc2ncc3cc(Cl)c(N4CCC(C)(O)CC4)cc3n2)c1C (single isomer, unassigned) [Ex-6.17] , tested with GST-tagged truncated human mutant G2019S LRRK2 (Homo sapiens, UniProt Q5S007, G2019S).
Resp: 10.5

Req: Request body: readout IC50, system GST-tagged truncated human mutant G2019S LRRK2 (Homo sapiens, UniProt Q5S007, G2019S), query Cc1nsc(Nc2ncc3ccc(N4C(=O)OC[C@@H]4C)cc3n2)c1C . Return the value.
Resp: 0.625

Req: Kindly state the measured IC50 obtained for C[C@H]1COC(=O)N1c1ccc2cnc(Nc3cnn4c3CCCC4)nc2c1 with GST-tagged truncated human mutant G2019S LRRK2 (Homo sapiens, UniProt Q5S007, G2019S).
Resp: 0.625

Req: Return IC50 measured with GST-tagged truncated human mutant G2019S LRRK2 (Homo sapiens, UniProt Q5S007, G2019S) given this molecule: CC1(N2CCN(c3cc4nc(Nc5cnn(C6CC6)c5Cl)ncc4cc3Cl)CC2)COC1 [Ex-4.17]
Resp: 2.32

Req: Short answer please: IC50, GST-tagged truncated human mutant G2019S LRRK2 (Homo sapiens, UniProt Q5S007, G2019S), entry Cc1nsc(Nc2ncc3ccc(N4C(=O)OC[C@@H]4C)cc3n2)c1C1CC1
Resp: 11

Req: Form field: IC50 recorded for CCn1ncc(Nc2ncc3ccc(N4C(=O)CCC4C)cc3n2)c1C (single isomer, unassigned) [Ex-7.17] with GST-tagged truncated human mutant G2019S LRRK2 (Homo sapiens, UniProt Q5S007, G2019S) (enter value)
Resp: 54.9

Req: Requested read-out IC50, target or system GST-tagged truncated human mutant G2019S LRRK2 (Homo sapiens, UniProt Q5S007, G2019S), entry Cc1c(Nc2ncc3cc(Cl)c(N4CCN(C5COCC5O)CC4)cc3n2)cnn1C1CC1(F)F (single isomer, unassigned) [Ex-6.44]
Resp: 6.89

----------
Biological target: GST-tagged truncated human mutant G2019S LRRK2 (Homo sapiens, UniProt Q5S007, G2019S)
Test: LRRK2 G2019S Km ATP LanthaScreen assay
Assay type: biochemical
Settings: 134 μM ATP (Km ATP), LRRKtide substrate, mean IC50 values; read-out: LRRK2 pIC50 (converted)
Measurement Type: IC50

Req: Sample Cc1cc2cnc(Nc3cnn(C4CC4)c3Cl)nc2cc1N1CCN(C2COCC2O)CC1 (single isomer, unassigned) — what was its IC50?
Resp: 0.17 nM

Req: IC50 lookup needed for Cn1ncc(Nc2ncc3ccc(N4C(=O)C5CCC4C5)cc3n2)c1C(F)(F)F (single isomer, unassigned) [Ex-4.4] , thanks.
Resp: 24.6 nM

Req: What does the record list as IC50 for Cc1c(Nc2ncc3cc(Cl)c(N4C[C@H]5CC[C@@H](C4)[C@@]5(C)O)cc3n2)cnn1C1CC1 ?
Resp: 0.486 nM

Req: Data request, read-out IC50, for FC1(F)CC(N2CCN(c3cc4nc(Nc5cnn(C6CC6)c5Cl)ncc4cc3Cl)CC2)C1
Resp: 11.1 nM

Req: For Cc1nn(C2CC3(C2)CN(C2COC2)C3)cc1Nc1ncc2ccc(N3C(=O)C4CCC3C4)cc2n1 (single isomer, unassigned) [Ex-8.6] , what is its reported IC50?
Resp: 4.86 nM

Req: What value of measured IC50 is listed for Cc1cc2cnc(Nc3cnn(C4CC4(F)F)c3Cl)nc2cc1N1CCN(C2(C)COCC2O)CC1 (single isomer, unassigned) ?
Resp: 0.42 nM

Req: Reported IC50 for CC1CCC12CN(c1cc3nc(Nc4cnn(C5(C)CC5)c4Cl)ncc3cc1Cl)C2 (single isomer, unassigned) [Ex-4.25] : what is it?
Resp: 570 nM
